Assay: NCI Yeast Anticancer Drug Screen. Data for the wt2 strain (AID 169)
Settings: S. cerevisiae wt2 strain growth inhibition; at 33.0 µM
This is part of a sample that, as a whole, favours compounds with a hit. Of some 79,000 tested, about 15% had one in any assay. Active and inactive are the calls of the source. Rule as the data show it: active = growth inhibition above about 70%; inactive = the rest.
Pick one and only one: true for active, false for inactive

Each compound tested received a call. Report the one for Cc1nc(-c2cc3cc([N+](=O)[O-])ccc3oc2=O)cs1 . false

Each compound tested received a call. Report the one for COc1oc(C(=O)NC2CCCCC2)c(-c2ccc(Cl)cc2)c1S(=O)(=O)c1ccccc1 . true

Each compound tested received a call. Report the one for O=C1/C(=C/c2ccccc2)CCCC1CN1CCCCC1 (configuration not stated) . true

Next:
Each compound tested received a call. Report the one for CCCCCCSc1ncnc2[nH]ncc12 . false

Each compound tested received a call. Report the one for O=C(NCCCl)Sc1ccc(Cl)cc1 . false

Each compound tested received a call. Report the one for CCC(C)NC1=NCC(C)S1 (configuration not stated) . false

Each compound tested received a call. Report the one for COC1=C(OC)C(=O)C(Sc2ccc3ccccc3c2)=CC1=O . true

Each compound tested received a call. Report the one for CS(=O)(=O)SCc1ccc([N+](=O)[O-])cc1 . true
